Tested on: Hepatitis C virus
TEST_DESCRIPTION: Antiviral activity against HCV subtype 1b expressing wild type NS3/4A protease infected in ET cells after 72 hrs
Type: functional, organism-based, Hepacivirus hominis
MEASUREMENT_SETUP: genotype 1b
MEASURED_ATTRIBUTE: pEC50
Numbers only, as −log10 of the molar value.

// known answers, use as guide
CCN(CC)C(=O)N[C@H]1CCCCC/C=C\[C@@H]2C[C@@]2(C(=O)NS(=O)(=O)C2CC2)NC(=O)[C@@H]2C[C@@H](Oc3cc(-c4nc(C5CC5)cs4)nc4c(C)c(OC)ccc34)CN2C1=O :: 10.52
COc1ccc2c(O[C@@H]3C[C@H]4C(=O)N[C@]5(C(=O)NS(=O)(=O)C6CC6)C[C@H]5/C=C\CCCCC[C@H](NC(=O)OC(C)(C)C)C(=O)N4C3)cc(-c3nc(C4CC4)cs3)nc2c1C :: 10.70

Here is another molecule to look at.
Record summary for COc1ccc2c(O[C@@H]3C[C@H]4C(=O)N[C@]5(C(=O)NS(=O)(=O)C6CC6)C[C@H]5/C=C\CCCCC[C@H](NC(=O)C5(OC)CCC5)C(=O)N4C3)cc(-c3nc(C4CC4)cs3)nc2c1C : reported pEC50 = 10.40
